Measured melting point values are reported for all entries that follow.

| Compound | melting point |
| --- | --- |
| CCSc1ccc(C(=O)O)cn1 | 123 to 125 °C |
| CN(C)CC(C)(C)CNC(N)=S | 121 to 123 °C |
| N#CCC(=O)NN1CCCCC1=O | 146 to 148 °C |
| COc1ccc(C2C(C(=O)O)CCC(=O)N2C)cc1 (stereo not drawn) | 213 to 215 °C |
| Nc1ccc2[nH]c(=O)c(=O)[nH]c2c1 | 352 to 354 °C |
| Cc1c(C(=O)O)nnn1-c1cccc(Br)c1 | 184 to 186 °C |
| Fc1ccc(-c2nc(CCl)no2)cc1 | 51 to 55 °C |
| O=C(O)c1nn(-c2ccccc2Cl)c2c1CCCC2 | 232 to 234 °C |
| O=C(C=NO)Nc1cccc(C(F)(F)F)c1 | 115 to 117 °C |
| Cc1ccc(N2C(=O)NC(=O)C2C)cc1 (stereo not drawn) | 110 to 112 °C |
| Nc1ccc(CCN2CCSCC2)cc1 | 88 to 90 °C |
| N#Cc1ccc(OCC2CO2)cc1 (stereo not drawn) | 64 to 66 °C |
| COc1ccc(NC(=O)Oc2ccccc2)c([N+](=O)[O-])c1 | 43 to 48 °C |

###

Measured melting point accompanies every entry in the list below.
Measurement Label: melting point

| Compound | Experimental Result |
| --- | --- |
| CCCCOc1ccc(-c2nnc(N)o2)cc1 | 229 to 231 °C |
| C/C(=N\O)c1cc(C(=O)O)c[nH]c1=O | 281 to 283 °C |
| CC(C)(C)OC(=O)NC1CN(c2ccccc2)C1=O (stereo not drawn) | 167 to 169 °C |
| CC(C)(C)c1ccc2oc(N)nc2c1 | 146 to 148 °C |
| O=C(O)c1ccc(NC(=O)c2cc(Cl)cc(Cl)c2)cc1 | 305 to 307 °C |
| c1ccc(NC2=NCCCS2)cc1 | 124 to 126 °C |
| N#Cc1cc(C=O)ccc1F | 80 to 84 °C |
| CCN(CC)S(=O)(=O)c1cccc(-c2nnc(S)o2)c1 | 95 to 101 °C |
| CS(=O)(=O)c1cc(C(=O)O)cs1 | 204 to 206 °C |
| CC(Cl)c1nnc(-c2ccc(Cl)c(Cl)c2)o1 (stereo not drawn) | 93 to 95 °C |
| Cc1cc(Br)c(C)c(S(=O)(=O)Cl)c1 | 163 to 165 °C |
| O=C(O)CSc1ccc(Cl)cc1[N+](=O)[O-] | 159 to 161 °C |
| O=C(O)CCCCCCN1C(=O)C=CC1=O | 79 to 81 °C |
| O=C(Nc1cccnc1)c1cccc(Br)c1 | 133 to 135 °C |
| ClCc1coc(-c2ccccc2)n1 | 51 to 55 °C |
| CN(C)S(=O)(=O)c1ccccc1C#N | 57 to 59 °C |
| Cc1ccc(C2CCCCC2O)cc1 (stereo not drawn) | 72 to 74 °C |
| NC1CCCc2[nH]ccc21 (stereo not drawn) | 83 to 85 °C |
| Cc1ccc(S(=O)(=O)NCCCN(C)C)cc1C(=O)O | 229 to 231 °C |
| Cc1ccccc1COc1c(C)cc(C=O)cc1C | 62 to 64 °C |
| COCc1cccc(CNC(=O)CCl)c1 | 41 to 43 °C |
| O=C(O)CC(O)(c1ccccc1)C1CC1 (stereo not drawn) | 105 to 107 °C |
| CCN(CC)C(=O)COc1ccc(C(C)=O)cc1 | 61 to 63 °C |
| CCn1cc(S(=O)(=O)Cl)nc1C | 65 to 67 °C |
| CS(=O)(=O)c1ccc(OCCCCC(=O)O)cc1 | 125 to 127 °C |
| O=C(O)C1CC1c1ccccc1OC(F)(F)F (stereo not drawn) | 94 to 96 °C |
| O=Cc1ccccc1OCc1cn2ccccc2n1 | 123 to 125 °C |
| O=C(c1ccccc1)c1ccc(OC(F)F)cc1 | 156 to 158 °C |
| O=c1[nH]c(S)nc2scc(-c3ccc(F)cc3)c12 | 200 to 202 °C |
| CC(CC(=O)c1cccc(Br)c1)C(=O)O (stereo not drawn) | 95 to 97 °C |
| CCCc1c(C(=O)O)nnn1-c1cccc(C(C)C)c1 | 78 to 80 °C |
| CC(=O)Cn1cc(Br)cn1 | 62 to 64 °C |
| COc1cc(C=O)c([N+](=O)[O-])cc1OCc1ccccc1 | 130 to 132 °C |
